system: HS 578T breast; assay: NCI-60 one-dose screen, 48 h; conditions: 10 µM unless noted
This is part of a sample that, as a whole, favours compounds with a hit. Of some 83,000 tested, about 20% had one in any assay. Activity calls are given as the source filed them. Rule for the calls: active = growth percent below 10; inactive = the rest.
Outcome codes: active, inactive

compound	assigned class
CC[C@H](C)[C@H](NC(=O)[C@H]1CCCCN1C)C(=O)N(C)[C@H](C[C@@H](O)c1nc(C(=O)N[C@@H](Cc2ccccc2)C[C@H](C)C(=O)O)cs1)C(C)C	inactive
Clc1ccc(N2COOC3(OOC2)C2CC4CC(C2)CC3C4)cc1	inactive
Brc1ccc2c(c1)c(-c1nc(-c3c[nH]c4ncccc34)cs1)cn2CCN1CCCCC1	inactive
CC1(C)[C@H](O)[C@H](F)C[C@@]2(C)Oc3ccc(C(=O)Nc4ccc5c(c4)NC(=O)C54CCN(CCCCC#N)CC4)cc3C[C@H]12	active
CCCC[C@H](NC(=O)[C@H]1CCCCN1C)C(=O)N(C)[C@H](C[C@@H](OC(C)=O)c1nc(C(=O)N[C@@H](Cc2ccccc2)C[C@H](C)C(=O)OCC)cs1)C(C)C	inactive
CC(=O)OC1C(OC/C2=C/C3[C@@H](C(C)C)CC=C(C)[C@@H]3CC(OC(=O)/C=C/c3cn(C)cn3)[C@]3(C)C=C[C@@]2(O)O3)OCC(O)C1O (some centres not stated)	inactive
COc1ccc(C(=O)c2sc3nc4c(cc3c2N)N2CCC4CC2)cc1OC	inactive
O=C(O)c1ccc([S-])cc1.[Au+].c1ccc(CN2[CH-]N(Cc3ccccc3)C(c3ccccc3)=C2c2ccccc2)cc1	inactive
NC(=Nc1ccccc1)N[N+](=O)[O-]	inactive
Clc1ccc2nnnn2n1	inactive
COc1ccc(S(=O)(=O)Nc2c(/C=C\c3cc(OC)c(OC)c(OC)c3)ccc(OC)c2O)cc1OC	inactive
CC[C@H](C)[C@H](NC(=O)[C@H]1CCCCN1C)C(=O)N(C)[C@H](C[C@@H](OC(C)=O)c1nc(C(=O)NC23CC(C(=O)OC)(C2)C3)cs1)C(C)C	inactive
CN1CCC(c2c[nH]c3ccccc23)C1 (configuration not stated)	inactive
COc1ccc2c(c1)c(-c1nc(-c3cn(C)c4ncccc34)cs1)cn2CCN1CCOCC1	inactive
C#Cc1ccc2c(c1)C(c1ccccc1F)=NCC(=O)N2C	inactive
COC(=O)[C@@H](C)C[C@H](Cc1ccccc1)NC(=O)c1nc([C@@H](C[C@H](C(C)C)N(C)C(=O)[C@@H](NC(=O)[C@H]2CCCCN2C)C(C)C)OC(C)=O)sc1C(C)C	active
CNC(=O)Oc1ccc2c(c1)OCO2	inactive
